# Test system: NCI-H2085
# TEST METHOD NOTES: relative viability (nuclei count vs DMSO), 5 days (fraction); higher = more cells survive
# RUN CONDITIONS: first compound 0.5 µM
VALUE KIND: relative viability
In your answer, state the number alone without any accompanying words.

// query Reported relative viability, compound COc1cc2nccc(Oc3ccc(NC(=O)Nc4cc(C)on4)c(Cl)c3)c2cc1OC [Tivozanib] + Nc1nc2[nH]cc(CCc3ccc(C(=O)N[C@@H](CCC(=O)O)C(=O)O)cc3)c2c(=O)[nH]1 [Pemetrexed] (partner 0.2 µM) : ____
// result 0.899

// query Quick check: relative viability of COc1cc2nccc(Oc3ccc(NC(=O)Nc4cc(C)on4)c(Cl)c3)c2cc1OC [Tivozanib] + O=C(CCCCCCC(=O)Nc1ccccc1)NO [Vorinostat] (partner 1 µM) ?
// result 0.786

// query Give the measured relative viability of Nc1ccn([C@@H]2O[C@H](CO)[C@@H](O)[C@@H]2O)c(=O)n1 [Cytarabine] + CC(=O)Nc1cccc(-n2c(=O)n(C3CC3)c(=O)c3c(Nc4ccc(I)cc4F)n(C)c(=O)c(C)c32)c1 [Trametinib] (partner 0.02 µM) .
// result 0.39
